Each item that follows carries a reported polymerase ribozyme fitness (log ratio).
B1: TPR 5TU (parent)
chain: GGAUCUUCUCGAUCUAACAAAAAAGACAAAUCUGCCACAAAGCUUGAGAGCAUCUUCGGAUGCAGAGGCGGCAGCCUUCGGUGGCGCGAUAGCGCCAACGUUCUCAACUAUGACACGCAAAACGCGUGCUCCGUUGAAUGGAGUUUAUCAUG

- Variants of: B1
- assayDetails: polymerase ribozyme fitness, log enrichment relative to wild type (log ratio); higher = more active; in vitro selection for triplet polymerase activity
Variants at the floor of the assay were thinned out.
Give the value as a plain number.

Reference set (3 entries):
# input variant: G94A A115U ; wanted: its polymerase ribozyme fitness (log ratio)
-1.76

# input variant: C85U U146A G152U ; wanted: its polymerase ribozyme fitness (log ratio)
-3.06

# input variant: C38U G59C G81C C95G C116G ; wanted: its polymerase ribozyme fitness (log ratio)
-1.71

Further cases:
# input variant: G80A C99G U127C ; wanted: its polymerase ribozyme fitness (log ratio)
-2.19

# input variant: U53A C95A A120G ; wanted: its polymerase ribozyme fitness (log ratio)
-1.57

# input variant: U6G G94C C123A ; wanted: its polymerase ribozyme fitness (log ratio)
0.0628

# input variant: A37G U56A A97G ; wanted: its polymerase ribozyme fitness (log ratio)
-2.85

# input variant: C51A C85A ; wanted: its polymerase ribozyme fitness (log ratio)
-2.75

# input variant: C96A G133U ; wanted: its polymerase ribozyme fitness (log ratio)
-3.9

# input variant: C57A G58U C76A C85U C96U A147G ; wanted: its polymerase ribozyme fitness (log ratio)
-3.03
